We begin with a simple list: items and their reported viability at 28.5 h, 10 µM.
# MEASUREMENT_DESCRIPTION: in vitro
# SETUP_CONDITIONS: human, hela cells, % viability
Express it in %; write the number only.

• CN(C)c1ccc(-c2nccnc2NCC(O)COc2ccccc2)cc1 (centres unmarked) [CBK036928] = 103
• CS(=O)(=O)c1ccc(-c2c[nH]c([C@@H]3COCCN3Cc3ccc(C(=O)O)cc3)n2)cc1 [CBK289306] = 97.3
• NC(CSC12CC3CC(CC(C3)C1)C2)C(=O)O (centres unmarked) [CBK287219] = 88.2

Look at this molecule and give its reported viability at 28.5 h, 10 µM. O=C(O)c1ccccc1NC(=S)NC(=O)c1ccccc1[N+](=O)[O-] [CBK264963]
96.2

// query viability at 28.5 h, 10 µM value for entry O=C1CCCC2=C1C(c1ccccc1O)c1c([nH][nH]c1=O)N2 (centres unmarked) [CBK288442]
90.2

Given COc1cccc(Oc2nccnc2-c2ccsc2)c1 [CBK106762] , state its recorded viability at 28.5 h, 10 µM.
92.1

Quick one: viability at 28.5 h, 10 µM for CC1=C[C@@H](CNS(=O)(=O)c2ccccc2)[C@H](C(C)C)C[C@H]1CC(=O)N1CCCC1 [CBK289054] ?
122

* * *

Measured viability at 28.5 h, 10 µM values are reported for all entries that follow.
# MEASUREMENT_DESCRIPTION: in vitro
# SETUP_CONDITIONS: human, hela cells, % viability
Only the number, expressed in %, is required.

Given the molecule COc1ccc(CCNC(=O)CN2CCCC2Cn2cccn2)cc1 (centres unmarked) , what is its reported viability at 28.5 h, 10 µM?
92.1

Given the entry Cc1csc(C(Cc2ccsc2)NC(=O)C2CC2C)n1 (centres unmarked) , report its measured viability at 28.5 h, 10 µM.
86.7

What value of viability at 28.5 h, 10 µM has been recorded for this entry: COc1ccc(-c2cc(-c3c(O)ccc4c(C)cc(=O)oc34)nc(N)n2)cc1OC
85

Which viability at 28.5 h, 10 µM reading was recorded for the molecule O=C(Cc1c(O)c2ccccc2[nH]c1=O)NCc1ccc(Cl)cc1 ?
101

Look at this molecule and give its reported viability at 28.5 h, 10 µM. CCn1cc(-c2cncn2CCOc2ccc(C)cc2)cn1
88.5

Consider the molecule COc1cncc(-c2cccc(N3CCN(CCN(C)C)CC3)n2)c1 and give its measured viability at 28.5 h, 10 µM.
97.4

// returns reported viability at 28.5 h, 10 µM for input CC(C)C(=O)Nc1cc2ccccc2c(-c2ccc(OCc3ccccc3)c(F)c2)n1
89.8

Which value of viability at 28.5 h, 10 µM has been reported for O=C(Cc1cc(C(=O)O)c2ccccc2n1)Nc1ccccc1 in the records?
96.3

Which viability at 28.5 h, 10 µM value belongs to Cc1cc(C)nc(SCc2nc3ccc([N+](=O)[O-])cc3[nH]2)n1 ?
85.3

* * *

The following molecules are shown together with reported viability at 28.5 h, 10 µM values.
# MEASUREMENT_DESCRIPTION: in vitro
# SETUP_CONDITIONS: human, hela cells, % viability
Value expressed in %; do not type the unit.

• O=S1(=O)CCN(Cc2cn(-c3ccc(-c4ccccc4)cc3)nn2)CC1 = 95.4
• O=C(Nc1ccccc1C(=O)O)c1cc(S(=O)(=O)Nc2ccc(F)cc2)ccc1Cl = 120
• O=C1CCN(C(=O)c2ccccn2)CCN1Cc1cccc(F)c1 = 90.5
• Cc1ccc(NC(=O)NC(=O)C2CCN(S(C)(=O)=O)CC2)cc1 = 93.4
• CCOC(=O)c1cc(CC)sc1NC(=O)c1cc2ccccc2o1 = 88.3
• CC(=O)C1=C(C)N2C(=Nc3ccccc3C2(C)C)S1 [CBK010180C] = 85.5
• OC/C=C/c1cnc2ccccc2c1 = 119
• COc1ccc(-c2cc(C3CCN(C4CCSCC4)C3)[nH]n2)cc1 (stereo not shown) = 99.3

What value of viability at 28.5 h, 10 µM has been recorded for this entry: CC(=O)Nc1onc(C)c1-c1nc(-c2ccc(Cl)cc2Cl)cs1
101

Find the recorded viability at 28.5 h, 10 µM belonging to CC(C)(C)C(=O)CSc1nnc(Cn2cnc(Cl)c2Cl)o1 and report it.
81.2

Requested read-out: viability at 28.5 h, 10 µM. Entry: OCCOc1cccc(OCCOc2nccnc2N2CCNCC2)c1 [CBK014339G]
112

Endpoint output: viability at 28.5 h, 10 µM of Cc1ccccc1C(=O)NC(=S)NCCN1CCOCC1 . Value?
94.5

For the molecule OCCN(Cc1cccnc1)Cc1cccn1-c1cccc(F)c1 , what viability at 28.5 h, 10 µM is on record?
81.5

What does the record list as viability at 28.5 h, 10 µM for COc1ccc(Br)c(C(CO)N(C)C(=O)Cc2cnccc2C)c1 (stereo not shown) ?
96.4

Could you share which viability at 28.5 h, 10 µM value was measured for Cc1cc(C)cc(NC(=O)CC2Sc3ccccc3NC2=O)c1 (stereo not shown) ?
94

So what's the measured viability at 28.5 h, 10 µM for this one? O=C(NCC1(c2ccccc2F)CCOCC1)[C@@H]1C[C@@H]2C=C[C@H]1C2
91.6

For CCOc1ccccc1NC(=O)C(C)Oc1ccc(OC)cc1 (stereo not shown) , what is its reported viability at 28.5 h, 10 µM?
39.6

Fill blank: measured viability at 28.5 h, 10 µM of the molecule CCCCC(c1cccnc1)N(C)C(=O)c1cc(C)c(CC)n(C)c1=O (stereo not shown) is ____.
88.5

Entry CS(=O)(=O)Nc1ncc(-c2ccco2)cc1C(=O)Nc1ccon1 has what viability at 28.5 h, 10 µM?
89.6

Return reported viability at 28.5 h, 10 µM; argument: Cc1ccc(-c2csc3ncnc(Cl)c23)cc1
74.7

Value lookup for viability at 28.5 h, 10 µM; key = COc1ccc(CN2CCOC(C(=O)O)C2)cc1Cn1cncn1 (stereo not shown)
120
